Data provenance is patent US10538487B2.

assay: Single dose pharmacokinetic study in mice (iv 4 mg/Kg, po 20 mg/Kg), plasma concentration post-dosing; type: in vivo, mouse; conditions: male, C57BL/6, mouse, plasma, iv, 4 mg/kg, mouse, IV 4 mg/Kg, individual mice M1-M3; read-out: MRT0-inf
Entries and their MRT inf
Respond numerically; units are h and should not be typed.

Using the record for `CC(C)n1ccc(S(=O)(=O)NC(=O)Nc2c3c(cc4c2CCC4)CCC3)n1` , state its measured MRT inf.
4.3

For the next question, use this compound.
Using the record for CC(C)(O)c1coc(S(=O)(=O)NC(=O)Nc2c3c(cc4c2CCC4)CCC3)c1 [MCC_000950_016, reference compound] , state its measured MRT inf.
2.78

---

test: Single dose pharmacokinetic study in mice (iv 4 mg/Kg, po 20 mg/Kg), plasma concentration post-dosing; format: in vivo, mouse; details: male, C57BL/6, mouse, plasma, iv, 4 mg/kg, mouse, IV 4 mg/Kg, 1.00 h post dosing, mean of 3 mice; read-out: Plasma concentration, IV Time 1.00 h, Mean IV
Entries and their concentration at 1 h
Respond numerically; units are ng/mL and should not be typed.

Using the record for CC(C)(O)c1coc(S(=O)(=O)NC(=O)Nc2c3c(cc4c2CCC4)CCC3)c1 [MCC_000950_016, reference compound] , state its measured concentration at 1 h.
8430

For the next question, use this molecule.
Using the record for `CC(C)n1ccc(S(=O)(=O)NC(=O)Nc2c3c(cc4c2CCC4)CCC3)n1` , state its measured concentration at 1 h.
18700

---

molecular target: UniProtKB Q96P20; assay: Inhibition of IL-1β release, NLRP3 inflammasome activation assay in HMDM; type: cell-based; conditions: inhibition of IL-1β release, class symbols, read-out: Avg. IL-1β IC50 HMDM
Sequence (Q96P20 whole entry): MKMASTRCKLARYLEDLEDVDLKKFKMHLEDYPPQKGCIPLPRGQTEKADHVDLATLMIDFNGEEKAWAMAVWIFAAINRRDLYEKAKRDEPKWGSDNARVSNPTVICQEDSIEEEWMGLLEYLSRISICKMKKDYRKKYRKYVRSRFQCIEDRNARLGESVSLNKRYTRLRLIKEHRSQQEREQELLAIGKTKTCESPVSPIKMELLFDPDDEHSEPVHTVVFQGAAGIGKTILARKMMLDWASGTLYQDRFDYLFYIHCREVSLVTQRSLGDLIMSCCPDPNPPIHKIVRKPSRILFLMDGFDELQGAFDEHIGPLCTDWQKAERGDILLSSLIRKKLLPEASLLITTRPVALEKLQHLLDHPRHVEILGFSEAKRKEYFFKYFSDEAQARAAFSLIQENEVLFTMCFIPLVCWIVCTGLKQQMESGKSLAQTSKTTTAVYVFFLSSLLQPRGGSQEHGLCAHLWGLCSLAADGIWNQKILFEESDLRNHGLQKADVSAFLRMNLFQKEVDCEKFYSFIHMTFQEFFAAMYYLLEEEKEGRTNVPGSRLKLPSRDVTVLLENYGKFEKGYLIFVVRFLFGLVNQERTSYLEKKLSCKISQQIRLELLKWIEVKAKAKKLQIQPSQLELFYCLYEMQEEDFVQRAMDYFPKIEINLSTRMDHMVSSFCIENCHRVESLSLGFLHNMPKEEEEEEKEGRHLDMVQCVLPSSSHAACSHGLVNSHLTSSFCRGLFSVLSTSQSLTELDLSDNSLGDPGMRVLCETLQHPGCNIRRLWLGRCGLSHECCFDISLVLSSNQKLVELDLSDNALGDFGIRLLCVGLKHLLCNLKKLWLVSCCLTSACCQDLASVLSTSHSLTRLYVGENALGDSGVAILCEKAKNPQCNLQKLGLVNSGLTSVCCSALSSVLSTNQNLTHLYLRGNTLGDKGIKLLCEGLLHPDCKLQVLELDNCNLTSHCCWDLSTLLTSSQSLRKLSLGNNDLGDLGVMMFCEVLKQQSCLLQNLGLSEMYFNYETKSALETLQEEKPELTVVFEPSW
ASSAY_METRIC: IC50

Using the record for `CCC1=C(C)CN(C(=O)NCCc2ccc(S(=O)(=O)NC(=O)Nc3c4c(cc5c3CCC5)CCC4)cc2)C1=O` , state its measured IC50.
< 1000 nM

Using the record for `NCCCn1cc(CCC(=O)Nc2cccc(S(=O)(=O)NC(=O)Nc3c4c(cc5c3CCC5)CCC4)c2)nn1` , state its measured IC50.
< 1000 nM

Using the record for `CC(C)c1cc(S(=O)(=O)NC(=O)Nc2c3c(cc4c2CCC4)CCC3)nn1C` , state its measured IC50.
< 1000 nM

Using the record for `Cn1nc(S(=O)(=O)NC(=O)Nc2c3c(cc4c2CCC4)CCC3)cc1C(F)(F)F` , state its measured IC50.
< 1000 nM

For the next question, use this compound.
Using the record for `CC(C)(O)c1coc(S(=O)(=O)NC(=O)Nc2ccc(C(F)(F)F)cc2C(F)(F)F)c1` , state its measured IC50.
< 10000 nM

---

assay: Single dose pharmacokinetic study in mice (iv 4 mg/Kg, po 20 mg/Kg), plasma concentration post-dosing; assay type: in vivo, mouse; details: male, C57BL/6, mouse, plasma, po, 20 mg/kg, mouse, PO 20 mg/Kg, 24.0 h post dosing, mean of 3 mice; read-out: Plasma concentration, PO Time 24.0 h, Mean PO
Entries and their concentration at 24 h
Respond numerically; units are µg/mL and should not be typed.

Using the record for CC(C)n1ccc(S(=O)(=O)NC(=O)Nc2c3c(cc4c2CCC4)CCC3)n1 [MCC_007840_002] , state its measured concentration at 24 h.
1.47

Next:
Using the record for CC(C)(O)c1coc(S(=O)(=O)NC(=O)Nc2c3c(cc4c2CCC4)CCC3)c1 [MCC_000950_016, reference compound] , state its measured concentration at 24 h.
0.0391
